- test_protocol: Brain penetration comparison (Table 1)
- Format: in vivo
- test_conditions: 10 mg/kg, Dose 10 mpk
Catalogue of compounds with associated Kp uu

| compound | Kp uu |
| --- | --- |
| C#Cc1cccc(Nc2ncnc3cc(OCCOC)c(OCCOC)cc23)c1 [Erlotinib, erlotinib] | 0.05 |
| C=CC(=O)Nc1cc(Nc2nccc(-c3cn(C)c4ccccc34)n2)c(OC)cc1N(C)CCN(C)C [Osimertinib, osimertinib, reference compound] | 0.29 |
| CN1CCN(C[C@H]2COc3cc4ncnc(Nc5cccc(Br)c5F)c4cc3O2)CC1 [Compound 1] | 1.18 |

* * *

- test_protocol: Mouse PK study, unbound plasma and brain concentrations
- Type: in vivo
- test_conditions: mouse, in vivo, 10 mg/kg; Dose 10 mpk
Catalogue of molecules with associated half-life

| molecule | half-life [h] |
| --- | --- |
| CN1CCN(C[C@H]2COc3cc4ncnc(Nc5cccc(Br)c5F)c4cc3O2)CC1 | 5.2 |
| C=CC(=O)Nc1cc(Nc2nccc(-c3cn(C)c4ccccc34)n2)c(OC)cc1N(C)CCN(C)C [Osimertinib, osimertinib, reference compound] | 4.6 |
